- System: SARS-CoV-2 variant B.1.351
- protocol: microbe, parasite or virus in culture
- Assay type: cell-based, SARS-CoV-2 B.1.351
- experimental.setup: Severe acute respiratory syndrome coronavirus 2, Vero C1008, 96 h; 4 days; read-out: EC50 for CPE scoring-based assay for B.1.351
pEC50: −log10 of the molar value.
quantity.measured: pEC50

compound	quantity.measured	quantitative.readout
Oc1ccc([C@@H]2c3c(O)cc(O)cc3[C@@H]3c4c(cc(O)cc4[C@H]2[C@@H]2c4cc(O)cc5c4[C@@H](c4cc(O)cc(O)c4[C@H]2c2ccc(O)cc2)[C@H](c2ccc(O)cc2)O5)O[C@H]3c2ccc(O)cc2)cc1	pEC50	5.64
OC[C@H]1O[C@@H](Oc2cc3c4c(c2)[C@@H]([C@@H]2c5cc(O)cc6c5[C@@H](c5cc(O)cc(O)c5[C@H]2c2ccc(O)cc2)[C@H](c2ccc(O)cc2)O6)[C@H](c2ccc(O)cc2)c2c(O)cc(O)cc2[C@H]4[C@H](c2ccc(O)cc2)O3)[C@H](O)[C@@H](O)[C@@H]1O [Vatalbinoside A, vatalbinoside A]	pEC50	5.44
CCC(CC)COC(=O)[C@H](C)N[P@](=O)(OC[C@H]1O[C@@](C#N)(c2ccc3c(N)ncnn23)[C@H](O)[C@@H]1O)Oc1ccccc1 [Remdesivir, remdesivir, reference compound]	pEC50	5.85
Oc1ccc([C@@H]2c3c(O)cc(O)cc3[C@@H]3c4c(cc(O)c5c4[C@@H]2[C@H](c2ccc(O)cc2)[C@H]5c2cc(O)cc4c2[C@@H](c2cc(O)cc(O)c2)[C@H](c2ccc(O)cc2)O4)O[C@H]3c2ccc(O)cc2)cc1	pEC50	4.60
